Exercise: for every item that follows, state its recorded EC50 of peptide.
- Target of assay: T1, Merkel cell polyomavirus T antigen KLL epitope homolog (C-terminal cysteine replaced by alanine) peptide on … (human)
- T1 peptide: KLLEIAPNA
- Protocol text: IFN-g ELISA; T2 + peptide titration; T cell clone or line
One number for each entry, in ng/mL.

Binder	EC50 of peptide (ng/mL)
w876 clonotype 19 (TCR) alpha TRAV12-1*01 TRAJ45*01 CDR3: CVVYTGYSGGGADGLTF beta TRBV10-2*01 TRBJ2-2*01 CDR3: CASSGQNTGELFF	0.92

Dear colleague, could you please provide EC50 of peptide for the binders listed below?
1. w830 clonotype 4 (TCR) alpha TRAV12-1*01 TRAJ43*01 CDR3: CVLNNNDMRF beta TRBV19*01 TRBJ1-5*01 CDR3: CASSILGASNQPQHF
2. w876 clonotype 10 (TCR) alpha TRAV12-1*01 TRAJ37*02 CDR3: CVVYGSSNTGKLIF beta TRBV10-3*01 TRBJ2-2*01 CDR3: CAIRRQDQNTGELFF

Reply:
1: 1.1; 2: 0.7
